assay: Cytotoxicity against human BC1 cells; format: functional, cell-based
ASSAY ENDPOINT: IC50 (µg/mL)

# MOLECULE, UNIT ABBREVIATION, VALUE OBSERVED
data = [
    ("C=C/C(C)=C\\C[C@]1(C)[C@H](C)C[C@H](O)[C@@]23C(=C[C@H](OC(=O)CCCCC)C[C@@H]12)[C@@H](OC(C)=O)O[C@H]3OC(C)=O (relative stereo) [CASEARGREWINS I]", "µg/mL", 0.36),
    ("C=C/C(C)=C\\C[C@]1(C)[C@H](C)CC[C@@]23C(=C[C@H](OC(=O)CCC)C[C@@H]12)[C@@H](OC(C)=O)O[C@H]3OC(C)=O (relative stereo) [CASEARGREWINS E]", "µg/mL", 0.91),
    ("C=C/C(C)=C\\C[C@]1(C)[C@H](C)CC[C@@]23C(=C[C@H](OC(=O)CCCCC)C[C@@H]12)[C@@H](OC(C)=O)O[C@H]3OC(C)=O (relative stereo) [CASEARGREWINS H]", "µg/mL", 0.21),
    ("Cc1c2ccncc2c(C)c2c1[nH]c1ccccc12 [ELLIPTECINE]", "µg/mL", 0.13),
]

src = ChEMBL document CHEMBL1145417
